This collection of values is drawn from ChEMBL document CHEMBL1201862.

- Tested on: OVCAR-8
- assayDetails: NCI tumour cell line growth inhibition, 48 h
Activity calls are given as the source filed them. No stated cut-off is given here; in the data, active = GI50 up to about 1.1 µM and inactive = higher.
// one of TRUE for active, FALSE for inactive, no free text

Examples with answers:
{"columns": ["compound", "answerLabel"],
 "data": [
  ["Cc1nc2c(n1CC(C)C)C(=O)c1ccccc1C2=O", "FALSE"],
  ["CCN(CC)c1ccc2cc(-c3nc4ccccc4n3C)c(=O)oc2c1", "TRUE"],
  ["COC(=O)C1C2CC3C1C3C2C(=O)OC (stereo not drawn)", "FALSE"],
  ["COC(=O)C1CC2C=CC1N(C(=O)OCc1ccccc1)C2 (stereo not drawn)", "FALSE"],
  ["c1ccc(C2CC(NC3CCCCC3)=Nc3ccccc3N2)cc1 (stereo not drawn)", "FALSE"]
]}

Incoming: Tell me the recorded outcome of this test for C/C(=C/CNc1ncnc2c1ncn2CCC(=O)O)CO .
Outgoing: FALSE

Incoming: Cool, now CC1CC[C@@H](C(C)C)[C@H](Oc2nnc(C3OC(CO)C(O)C3O)o2)C1 (stereo partly drawn)
Outgoing: FALSE

Incoming: Moving on to the next compound: O=C1OC(=O)C2C3CCC(O3)C12 (stereo not drawn)
Outgoing: FALSE

---

- Tested on: SNB-75
- assayDetails: NCI tumour cell line growth inhibition, 48 h
The source made the active and inactive calls. Cut-off read from the data, not from the text of the source: active = GI50 up to about 1.1 µM and inactive = higher.
GI50 values by entry

Observe how each entry below is paired with its result.
{"columns": ["compound", "GI50"],
 "data": [
  ["Cc1nc(SCC(N)=O)c2sc(=S)n(-c3ccccc3)c2n1", "> 10 µM (inactive)"],
  ["Cc1cn(C2CC(N/C(=N/C#N)NCC3OC(n4cnc5c(N)ncnc54)CC3O)C(CO)O2)c(=O)[nH]c1=O (stereo not drawn)", "> 100 µM (inactive)"]
]}

Switching to the query record.
Incoming: Would you kindly share the measured GI50 for O=C1CSC(c2cccc(Oc3ccccc3)c2)N1c1cc(Cl)ccc1Cl (stereo not drawn) ?
Outgoing: 26.4 µM (inactive)

---

Here, each record is paired with measured GI50 data.
- System: SNB-78
- assayDetails: NCI tumour cell line growth inhibition, 48 h
Calls of active or inactive are those of the source. Cut-off read from the data, not from the text of the source: active = GI50 up to about 1.1 µM and inactive = higher.

Incoming: GET /values?readout=GI50&item= C=CCOC(C)n1c(C)cc(=O)n(C(C)OCC=C)c1=O (stereo not given)
Outgoing: > 100 µM (inactive)

Incoming: Subsequent entry: Clc1cc(Cl)cc(Nc2nc3ccccc3nc2-c2cccs2)c1
Outgoing: 62.5 µM (inactive)

Incoming: What do we get for CCOC(=O)NC(=O)c1cn(CCN2CCN(C(=O)NCCCCCCNC(=O)N3CCN(CCn4cc(C(=O)NC(=O)OCC)c(=O)[nH]c4=O)CC3)CC2)c(=O)[nH]c1=O ?
Outgoing: > 100 µM (inactive)

Incoming: Moving on to CC(=O)OC1=CC(n2cc(F)c(=O)[nH]c2=O)OC(C)C1=O (stereo not given)
Outgoing: > 100 µM (inactive)

Incoming: Can you check C/C=C(/I)CBr next?
Outgoing: 29 µM (inactive)

Incoming: How about this compound: NC(Cc1c[nH]c2ccccc12)C(=O)O (stereo not drawn) [DL-TRYPTOPHAN]
Outgoing: > 300 µM (inactive)

Incoming: Now the compound O=C(N/N=C/C=C/c1ccccc1)[C@H](O)[C@@H](O)C(=O)N/N=C/C=C/c1ccccc1
Outgoing: > 100 µM (inactive)

Incoming: Lookup O=C(NC12CC3CC(CC(C3)C1)C2)C(=O)c1c[nH]c2ccc(Cl)cc12
Outgoing: 83.2 µM (inactive)

Incoming: Do the same for COc1ccc(Cc2nccc3cc(OC)c(OC)cc23)cc1 please
Outgoing: > 100 µM (inactive)

Incoming: What about COc1cc(CCC(=O)NS(=O)(=O)c2ccccc2)cc(OC)c1OC ?
Outgoing: > 100 µM (inactive)

---

- Test system: 786-0
- assayDetails: NCI tumour cell line growth inhibition, 48 h
Activity calls are given as the source filed them. No stated cut-off is given here; in the data, active = GI50 up to about 1.1 µM and inactive = higher.
measuredAttribute: GI50

Here's what some known entries look like.
{"columns": ["molecule", "targetOrTestSystem", "GI50"],
 "data": [
  ["CSCCC(C(=O)O)N(CC1(O)OCC(O)C(O)C1O)N=O (centres undefined)", "786-0", "> 100 µM (inactive)"],
  ["S=C1N=C2C(=N1)n1c3c(c4ccccc41)CCCC23 (centres undefined)", "786-0", "15.5 µM (inactive)"],
  ["O=C1C=CC=C/C1=C1/SC(c2ccccc2)=C(O)N1c1ccccc1", "786-0", "> 100 µM (inactive)"],
  ["OCCCCn1cc(Cn2ncc3c(O)ncnc32)nn1", "786-0", "> 100 µM (inactive)"],
  ["COc1ccc(-c2c3c(n(C4OC(CO)C(O)C(O)C4O)c(=S)c2C#N)CCC3)cc1 (centres undefined)", "786-0", "36 µM (inactive)"],
  ["Cc1cnc(-c2c[nH]c3ccccc23)nc1-c1c[nH]c2ccccc12", "786-0", "3.58 µM (inactive)"],
  ["COCc1nc(N)nc(N2N=C(C)CC2(C)C)n1", "786-0", "> 100 µM (inactive)"],
  ["Cc1nc2ccc(S(=O)(=O)Nc3ccccc3Cl)cc2c(=O)n1NC(=O)CNc1ccccc1Cl", "786-0", "> 100 µM (inactive)"]
]}

Incoming: // lookup GI50 for CCCCCCCCCCCCCCCC[N+](C)(C)Cc1ccc(C[N+](C)(C)CCCCCCCCCCCCCCCC)cc1
Outgoing: 2.5 µM (inactive)

---

- Test system: CAKI-1
- assayDetails: NCI tumour cell line growth inhibition, 48 h
The source made the active and inactive calls. No stated cut-off is given here; in the data, active = GI50 up to about 1.1 µM and inactive = higher.
GI50 listing for selected molecules.

Example molecules with recorded GI50:
{"columns": ["molecule", "GI50"],
 "data": [
  ["c1ccc2c(c1)-c1nc3ccccc3cc1C2N1CCOCC1 (centres undefined)", "> 100 µM (inactive)"],
  ["CS(=O)(=O)OCCN1CCN(C(=O)c2cccc3c(Nc4ccc(S(=O)(=O)N=C(N)N)cc4)c4ccccc4nc23)CC1", "> 100 µM (inactive)"],
  ["CCOC1OC(COC(=O)C(C)(C)C)C(O)CC1n1cc(C)c(=O)[nH]c1=O (centres undefined)", "> 100 µM (inactive)"],
  ["COc1ccc(NS(=O)(=O)c2ccc(/N=C3\\C=C(Nc4ccc(S(=O)(=O)Nc5ccc(OC)nn5)cc4)C(=O)c4ccccc43)cc2)nn1", "22 µM (inactive)"],
  ["Cc1nnc(Nc2ccc(Cl)cc2)o1", "> 10 µM (inactive)"],
  ["O=c1cc(-c2ccccc2)c2ccc(O)c(CN(CCCl)CCCl)c2o1", "15.5 µM (inactive)"]
]}

Incoming: What GI50 value was documented for this molecule, COc1ccc(/C=C/C(=O)c2c(-c3ccccc3)nn(C)c(=O)c2N2CC2C)cc1 (centres undefined) ?
Outgoing: 44.5 µM (inactive)

Incoming: Next entry: COc1ccc(/C=C(/C)[N+](=O)[O-])cc1
Outgoing: 2.32 µM (inactive)

Incoming: Then this molecule: COCc1nc(N)nc(N2N=C(C)CC2(C)C)n1
Outgoing: > 100 µM (inactive)

---

Parameter 'readout' = GI50; parameter 'system' = HCT-15.

Past entries and their recorded results:
{"columns": ["compound", "GI50"],
 "data": [
  ["COc1cc2ccc(CC(N)=O)cc2cc1OC", "> 100 µM"],
  ["Cc1cn(C2CC(N/C(=N/C#N)NCC3OC(n4cnc5c(N)ncnc54)CC3O)C(CO)O2)c(=O)[nH]c1=O (stereo not drawn)", "> 100 µM"]
]}

Now take the following compound into account.
Incoming: Given O=C(c1ccc(Cl)cc1)c1ccc(OCC(=O)N2CCN(c3ccccc3)CC2)cc1 , state its recorded GI50.
Outgoing: > 100 µM

---

- Tested on: HL-60
- assayDetails: NCI tumour cell line growth inhibition, 48 h
Activity calls are given as the source filed them. No stated cut-off is given here; in the data, active = GI50 up to about 1.1 µM and inactive = higher.
Give your call using only these classes: active, inactive

Illustrative cases are given below, each with its answer.
{"columns": ["compound", "answerLabel"],
 "data": [
  ["CCOC(=O)C#Cc1ccccc1", "inactive"],
  ["CN(C)c1ccc(/C=C2\\C[N+](C)(C)C/C(=C\\c3ccc(N(C)C)cc3)C2=O)cc1", "inactive"],
  ["CC1=NN(c2nc(N)nc(-c3cc4ccccc4oc3=N)n2)C(C)(C)C1", "inactive"],
  ["N#Cc1c(CC(=O)O)cc(=O)n2c1[nH]c1ccccc12", "inactive"],
  ["CS(=O)(=O)CC(=O)c1ccccc1", "inactive"],
  ["COC(=O)c1c(C)[nH]c2c1C(=O)C(=O)c1nc(C)c(C)nc1-2", "inactive"],
  ["Cc1cnc(-c2c[nH]c3ccccc23)nc1-c1c[nH]c2ccccc12", "inactive"],
  ["COc1cc2c3cc1Oc1c(OC)c(OC)cc4c1C(Cc1ccc(O)c(c1)Oc1ccc(cc1)CC3N(C)CC2)CN(C)C4 (stereo not given)", "active"]
]}

Incoming: // param item: Cc1nc2ccccc2n1Cc1nnc(N)o1 ; yields the recorded call
Outgoing: inactive

Incoming: Then this compound: FC(F)(F)c1ccc2nc(Nc3ccc(Cl)c(Cl)c3)c(-c3ccccc3)nc2c1
Outgoing: inactive

Incoming: Next compound up: COc1ccc(C(=O)/C=C/c2ccc(OCCCOc3ccc(/C=C/C(=O)c4ccc(OC)c(OC)c4)cc3)cc2)cc1OC
Outgoing: inactive

Incoming: Please give the result for CCCCCCOP(=O)(OCCCCCC)OC(C(=O)OC)C(F)(F)F (stereo not given) too.
Outgoing: inactive

Incoming: Queued: CC1=NN(C(=O)c2ccccc2O)C(c2ccccc2Cl)C1C(=O)Nc1ccccc1 (stereo not given)
Outgoing: active

Incoming: Next compound up: COc1ccc(Oc2nc3ccc(C(F)(F)F)cc3nc2-c2ccccc2)cc1
Outgoing: inactive

Incoming: Same again, this time with CC(=O)[C@H]1CCC2[C@@H]3CC=C4C(O)C(OS(=O)(=O)O)CC[C@]4(C)C3CC[C@@]21C (stereo not given in full)
Outgoing: inactive
